- ASSAYED_SYSTEM: human PI3Kα protein (Homo sapiens, UniProt P42336)
- Construct: purchased Carna Biosciences, Inc; host or cells: baculovirus expression system
- Sequence (P42336 whole entry): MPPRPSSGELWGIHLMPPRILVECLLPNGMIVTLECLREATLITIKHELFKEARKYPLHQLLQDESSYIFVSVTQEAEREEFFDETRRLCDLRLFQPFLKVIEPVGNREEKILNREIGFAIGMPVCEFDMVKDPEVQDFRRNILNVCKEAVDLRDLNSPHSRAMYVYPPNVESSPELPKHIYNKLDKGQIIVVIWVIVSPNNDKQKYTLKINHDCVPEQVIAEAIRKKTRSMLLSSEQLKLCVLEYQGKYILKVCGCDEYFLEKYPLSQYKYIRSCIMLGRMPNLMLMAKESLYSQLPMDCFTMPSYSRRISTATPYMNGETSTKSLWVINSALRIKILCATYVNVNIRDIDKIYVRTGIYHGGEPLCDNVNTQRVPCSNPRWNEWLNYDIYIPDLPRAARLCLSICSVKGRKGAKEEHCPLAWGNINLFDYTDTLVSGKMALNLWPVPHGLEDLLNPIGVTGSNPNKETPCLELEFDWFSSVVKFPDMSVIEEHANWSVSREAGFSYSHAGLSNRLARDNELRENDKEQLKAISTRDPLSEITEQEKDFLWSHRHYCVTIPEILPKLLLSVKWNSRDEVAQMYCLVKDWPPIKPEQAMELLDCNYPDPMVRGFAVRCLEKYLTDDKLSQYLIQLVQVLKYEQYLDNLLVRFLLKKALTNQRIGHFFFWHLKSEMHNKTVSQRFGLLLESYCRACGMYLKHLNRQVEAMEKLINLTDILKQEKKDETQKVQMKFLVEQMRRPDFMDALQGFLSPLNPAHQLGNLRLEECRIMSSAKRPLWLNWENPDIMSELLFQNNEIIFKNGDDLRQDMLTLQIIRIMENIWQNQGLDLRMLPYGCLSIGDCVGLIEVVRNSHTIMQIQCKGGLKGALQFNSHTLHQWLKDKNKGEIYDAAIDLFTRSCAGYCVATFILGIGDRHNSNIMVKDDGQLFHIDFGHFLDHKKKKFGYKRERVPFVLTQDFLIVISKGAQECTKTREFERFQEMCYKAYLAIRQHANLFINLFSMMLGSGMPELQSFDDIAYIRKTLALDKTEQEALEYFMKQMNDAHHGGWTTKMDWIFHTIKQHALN
- Sequence (P27986 whole entry partner): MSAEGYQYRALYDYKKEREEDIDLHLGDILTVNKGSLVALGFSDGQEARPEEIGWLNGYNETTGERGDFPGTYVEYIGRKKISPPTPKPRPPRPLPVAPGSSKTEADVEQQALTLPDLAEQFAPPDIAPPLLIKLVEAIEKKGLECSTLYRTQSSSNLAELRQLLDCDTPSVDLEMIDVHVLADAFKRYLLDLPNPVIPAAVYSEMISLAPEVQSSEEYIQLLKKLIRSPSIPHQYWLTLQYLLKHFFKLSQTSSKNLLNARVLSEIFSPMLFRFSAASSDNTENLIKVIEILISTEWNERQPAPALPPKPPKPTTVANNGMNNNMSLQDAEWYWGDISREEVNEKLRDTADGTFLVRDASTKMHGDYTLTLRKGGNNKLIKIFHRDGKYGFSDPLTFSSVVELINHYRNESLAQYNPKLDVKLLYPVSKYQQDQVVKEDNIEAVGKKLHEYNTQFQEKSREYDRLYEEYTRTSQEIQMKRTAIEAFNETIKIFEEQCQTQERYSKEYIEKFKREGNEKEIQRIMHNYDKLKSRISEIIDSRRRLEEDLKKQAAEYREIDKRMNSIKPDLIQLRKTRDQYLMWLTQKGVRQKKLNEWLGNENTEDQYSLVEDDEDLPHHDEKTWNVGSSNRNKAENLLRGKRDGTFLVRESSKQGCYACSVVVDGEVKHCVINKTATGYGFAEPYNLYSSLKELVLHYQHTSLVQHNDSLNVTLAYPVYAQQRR
- ASSAY_OVERVIEW: PI3Kα enzyme assay (ADP-Glo)
- Assay type: biochemical
- MEASUREMENT_CONTEXT: read-out: PI3Kα enzyme inhibitory activity
ENDPOINT_LABEL: IC50

Q) Input `Cc1cn(-c2cnc3ccc(Nc4cc(C(C)C)cnn4)nc3c2)c(C)n1` , output reported IC50.
A) 1 to 10 µM

Q) Input `CC(C)c1cnnc(Nc2ccc3ncc(NC(=O)CO)cc3n2)c1` , output reported IC50.
A) < 1 µM

Q) Input `Cc1c(-c2cnc3ccc(Nc4nnc(C(C)C)s4)nc3c2)cnn1CCCN1CCCC1` , output reported IC50.
A) < 1 µM

Q) Input `OCCN1CCC(n2cc(-c3cnc4ccc(Nc5nnc(C6CCCC6)s5)nc4c3)cn2)CC1` , output reported IC50.
A) < 1 µM

Q) Input `CC(=O)NCCc1cn(-c2cnc3ccc(Nc4cc(C(C)C)cnn4)nc3c2)cn1` , output reported IC50.
A) < 1 µM

Q) Input CCC(C)c1cnnc(Nc2ccc3ncc(-c4cnn(CCCN5CCCC5)c4)cc3n2)c1 (centres unmarked) , output reported IC50.
A) < 1 µM

Q) Input `CC(C)c1cnnc(Nc2ccc3ncc(-c4cnn(/C=C(\F)CN5CCCC5)c4)cc3n2)c1` , output reported IC50.
A) < 1 µM

Q) Input `CC(C)c1cnnc(Nc2ccc3ncc(NC4CCCC4)cc3n2)c1` , output reported IC50.
A) < 1 µM

Q) Input CC1CN(CCCn2cc(-c3cnc4ccc(Nc5cc(C(C)C)cnn5)nc4c3)cn2)CCO1 (centres unmarked) , output reported IC50.
A) < 1 µM

Q) Input `CC(C)c1cnnc(Nc2ccc3ncc(-c4cnn(CCCN5CCCCC5=O)c4)cc3n2)c1` , output reported IC50.
A) < 1 µM

Q) Input `c1nc2ccc(Nc3nnc(C4CCC4)s3)nc2cc1-c1cnn(CCCN2CCCC2)c1` , output reported IC50.
A) < 1 µM

Q) Input `Cc1[nH]ncc1-c1cnc2ccc(Nc3nnc(C4CCCC4)s3)nc2c1` , output reported IC50.
A) 1 to 10 µM

Q) Input `CC(C)c1nnc(Nc2ccc3nccc(-c4cnccn4)c3n2)s1` , output reported IC50.
A) 1 to 10 µM

Q) Input `CC(C)c1cnnc(Nc2ccc3ncc(-c4cnn(CCOC5CN(C)C5)c4)cc3n2)c1` , output reported IC50.
A) < 1 µM

Q) Input `Cn1cc(-c2cnc3ccc(Nc4nnc(N5CCOCC5)s4)nc3c2)cn1` , output reported IC50.
A) 1 to 10 µM

Q) Input COCC(C)c1cnnc(Nc2ccc3ncc(-c4cn(C)nc4C)cc3n2)c1 (centres unmarked) , output reported IC50.
A) < 1 µM

Q) Input `CC(C)c1cnnc(Nc2ccc3ncc(-c4ccccn4)cc3n2)c1` , output reported IC50.
A) 1 to 10 µM

====

- ASSAYED_SYSTEM: GST fusion human ERK2 protein (Homo sapiens)
- Construct: purchased Carna Biosciences, Inc; host or cells: E. coli expression system
- Sequence (P28482 whole entry, the tested form may be a part): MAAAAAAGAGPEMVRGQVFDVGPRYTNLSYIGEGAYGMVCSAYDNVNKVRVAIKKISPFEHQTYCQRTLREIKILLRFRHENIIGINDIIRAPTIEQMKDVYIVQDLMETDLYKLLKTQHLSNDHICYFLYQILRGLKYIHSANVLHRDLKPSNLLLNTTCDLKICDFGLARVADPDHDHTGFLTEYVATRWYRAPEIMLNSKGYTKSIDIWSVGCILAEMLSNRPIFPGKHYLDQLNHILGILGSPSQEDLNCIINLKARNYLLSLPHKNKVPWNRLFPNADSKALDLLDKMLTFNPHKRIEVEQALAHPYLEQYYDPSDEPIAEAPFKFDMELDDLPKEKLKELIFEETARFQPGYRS
- ASSAY_OVERVIEW: ERK2 enzyme assay (2)
- Assay type: biochemical
- MEASUREMENT_CONTEXT: ERK2 enzyme assay (2); read-out: ERK2 enzyme inhibitory activity (2)
pIC50: −log10 of the molar value.
Provide the recorded pIC50 for the entries that follow.

Q) Input CC(C)c1cnnc(Nc2ccc3ncc(-c4cnn([C@@H]5CCN(C)C5)c4)cc3n2)c1 [Example 0493] , output reported pIC50.
A) > 6.00

Q) Input CCC(C)c1cnnc(Nc2ccc3ncc(-c4cnn(CCCN5CCCC5)c4)cc3n2)c1 (centres unmarked) [Example 0294] , output reported pIC50.
A) > 6.00

Q) Input CC(C)c1cnnc(Nc2ccc3ncc(-c4cnn(CCCN5C[C@@H](C)O[C@H](C)C5)c4)cc3n2)c1 [Example 0614] , output reported pIC50.
A) > 6.00

Q) Input COc1ccc(-c2nn(C)cc2-c2cnc3ccc(Nc4cc(C(C)C)cnn4)nc3c2)cc1 [Example 0584] , output reported pIC50.
A) > 6.00

Q) Input C=Cn1cc(-c2cnc3ccc(Nc4cc(C(C)C)cnn4)nc3c2)cn1 [Example 0610] , output reported pIC50.
A) > 6.00

Q) Input Cc1n[nH]c(C)c1-c1cnc2ccc(Nc3nnc(C4CCCC4)s3)nc2c1 [Example 0215] , output reported pIC50.
A) > 6.00

Q) Input COCC1CN(CCCn2cc(-c3cnc4ccc(Nc5cc(C(C)C)cnn5)nc4c3)cn2)CCO1 (centres unmarked) [Example 0679] , output reported pIC50.
A) > 6.00

Q) Input CC(C)c1cnnc(Nc2ccc3ncc(-c4cn(C)nc4Nc4ccccc4)cc3n2)c1 [Example 0829] , output reported pIC50.
A) > 6.00

Q) Input CC(C)Cc1cnnc(Nc2ccc3ncc(-c4cnn(C)c4)cc3n2)c1 [Example 0571] , output reported pIC50.
A) > 6.00

Q) Input CC(C)c1ccnc(Nc2ccc3ncc(-c4cnn(C)c4)cc3n2)c1 [Example 0551] , output reported pIC50.
A) 4.30 to 5.00

Q) Input CC(C)c1cnnc(Nc2ccc3ncc(-c4cnn(Cc5cscn5)c4)cc3n2)c1 [Example 0449] , output reported pIC50.
A) > 6.00

Q) Input CC(=O)N1CCCC(Nc2cnc3ccc(Nc4cc(C(C)C)cnn4)nc3c2)C1 (centres unmarked) [Example 0541] , output reported pIC50.
A) 5.00 to 6.00

Q) Input Cn1cc(-c2cnc3ccc(Nc4nnc(C5CCCCC5)s4)nc3c2)cn1 [Example 0217] , output reported pIC50.
A) > 6.00

Q) Input CC(C)c1cnnc(Nc2ccc3ncc(-c4cnn(CCCN5CC(C(N)=O)C5)c4)cc3n2)c1 [Example 0670] , output reported pIC50.
A) > 6.00

Q) Input COC1CN(CCCn2cc(-c3cnc4ccc(Nc5cc(C(C)C)cnn5)nc4c3)cn2)C1 [Example 0630] , output reported pIC50.
A) > 6.00

Q) Input CC(C)Oc1cnnc(Nc2ccc3ncc(-c4cnn(CCCN5CCOCC5)c4)cc3n2)c1 [Example 0501] , output reported pIC50.
A) 5.00 to 6.00

Q) Input c1nc2ccc(Nc3nnc(C4CCCC4)s3)nc2cc1-c1cnn(CCCN2CCC2)c1 [Example 0345] , output reported pIC50.
A) > 6.00

====

Provide the recorded IC50 for the entries that follow.
- ASSAYED_SYSTEM: human PI3Kα protein (Homo sapiens, UniProt P42336)
- Construct: purchased Carna Biosciences, Inc; host or cells: baculovirus expression system
- ASSAY_OVERVIEW: PI3Kα enzyme assay (ADP-Glo)
- Assay type: biochemical
- MEASUREMENT_CONTEXT: 4.5 nmol/L PI3Kα, PIP2 50 μmol/L, ATP 100 μmol/L; read-out: PI3Kα enzyme inhibitory activity
Structures can show the parent of a compound that is named as a salt.

Q) Input `CC(C)(C)c1cncc(Nc2cnc3ccc(Nc4nnc(C5CCCC5)s4)nc3c2)c1` , output reported IC50.
A) < 1000 nM

Q) Input `COc1cc(Nc2cnc3ccc(Nc4nnc(C5CCCC5)s4)nc3c2)cc(OC)c1` , output reported IC50.
A) 1000 to 10000 nM

Q) Input `c1nnc(Nc2ccc3ncc(-c4cnn(CCCN5CCOCC5)c4)cc3n2)s1` , output reported IC50.
A) < 1000 nM

Q) Input `Cn1cc(Nc2cnc3ccc(Nc4nnc(C5CCCC5)s4)nc3c2)cn1` , output reported IC50.
A) 1000 to 10000 nM

Q) Input COCCOc1cnc2ccc(Nc3nnc(C4CCCC4)s3)nc2c1 [Example 0041, hydrochloride] , output reported IC50.
A) 10000 to 50000 nM

Q) Input `CC(C)c1nnc(Nc2ccc3nccc(Nc4ccccn4)c3n2)s1` , output reported IC50.
A) < 1000 nM

Q) Input `CC(C)c1cnnc(Nc2ccc3ncc(-c4cn[nH]c4)cc3n2)c1` , output reported IC50.
A) 1000 to 10000 nM

Q) Input `Cn1cc(-c2cnc3ccc(Nc4nnc(S(=O)(=O)Nc5ccccc5)s4)nc3c2)cn1` , output reported IC50.
A) < 1000 nM

====

Provide the recorded IC50 for the entries that follow.
- ASSAYED_SYSTEM: human PI3Kα protein (Homo sapiens, UniProt P42336)
- Construct: purchased Carna Biosciences, Inc; host or cells: baculovirus expression system
- ASSAY_OVERVIEW: PI3Kα enzyme assay (ADP-Glo)
- Type: biochemical
- MEASUREMENT_CONTEXT: 4.5 nmol/L PI3Kα, PIP2 50 μmol/L, ATP 100 μmol/L; read-out: PI3Kα enzyme inhibitory activity

Q) Input CC(C)c1nnc(Nc2ccc3ncc(-c4cnn(CCCN5CCOCC5)c4)cc3n2)s1 [Example 0118] , output reported IC50.
A) < 1 µM

Q) Input CC(C)c1nnc(Nc2ccc3ncc(-c4cn(C)nc4C(C)C)cc3n2)s1 [Example 0125] , output reported IC50.
A) < 1 µM

Q) Input CC(C)c1nnc(Nc2ccc3ncc(-c4cnn(C)c4)nc3n2)s1 [Example 0010] , output reported IC50.
A) 1 to 10 µM

Q) Input Cc1cnnc(Nc2ccc3ncc(-c4cnn(C)c4)cc3n2)c1 [Example 0139] , output reported IC50.
A) < 1 µM

Q) Input c1cc(N2CCOCC2)ncc1Nc1cnc2ccc(Nc3nnc(C4CCCC4)s3)nc2c1 [Example 0066] , output reported IC50.
A) < 1 µM

Q) Input CN1CCN(c2cncc(Nc3cnc4ccc(Nc5nnc(C6CCCC6)s5)nc4c3)c2)CC1 [Example 0102] , output reported IC50.
A) < 1 µM

Q) Input CCc1nn(C)cc1-c1cnc2ccc(Nc3nnc(C(C)C)s3)nc2c1 [Example 0121] , output reported IC50.
A) < 1 µM

Q) Input CC(C)c1nnc(Nc2ccc3ncc(Nc4ccc(CN5CCOCC5)nc4)cc3n2)s1 [Example 0096] , output reported IC50.
A) < 1 µM

Source listed as patent US9783536B2.
